- assayed_target: HLA-B*39:01
- experiment_description: IEDB peptide-MHC binding, purified MHC/direct/fluorescence; filed as Kd, often an IC50 or EC50 that approximates it; bounds were set here for any values at or beyond the usual limits of such assays
- condition_info: source organism: Encephalitozoon cuniculi GB-M1
measurement_label: Kd

// query Kd value for entry RNMSRIFPY
≥ 20 µM

###

- assayed_target: HLA-B*27:05
- experiment_description: IEDB peptide-MHC binding, purified MHC/direct/fluorescence; filed as Kd, often an IC50 or EC50 that approximates it; bounds were set here for any values at or beyond the usual limits of such assays
- condition_info: source organism: Vibrio parahaemolyticus
pKd: −log10 of the molar value.
measurement_label: pKd

// query pKd value for entry EIPGSPGSY
≤ 4.70

###

- assayed_target: HLA-A*02:11
- experiment_description: IEDB peptide-MHC binding, purified MHC/direct/fluorescence; filed as Kd, often an IC50 or EC50 that approximates it; bounds were set here for any values at or beyond the usual limits of such assays
- condition_info: source organism: Influenza A virus(A/swine/Shandong/fZC/2003(H9N2))
measurement_label: Kd (nM)
Quick note: give the figure in nM, leave out the unit.

Tell me reported Kd for TMLYNKMEF , tested with HLA-A*02:11.
157

###

- assayed_target: HLA-B*58:01
- experiment_description: IEDB peptide-MHC binding, purified MHC/direct/fluorescence; filed as Kd, often an IC50 or EC50 that approximates it; bounds were set here for any values at or beyond the usual limits of such assays
- condition_info: source organism: Marburg virus - Musoke, Kenya, 1980
measurement_label: pKd
Please report pKd as the negative decimal logarithm of the molar concentration, giving only the number.

// query pKd value for entry ATAVNQECW
7.29

###

- assayed_target: HLA-B*39:01
- experiment_description: IEDB peptide-MHC binding, purified MHC/competitive/fluorescence; filed as Kd, often an IC50 or EC50 that approximates it; bounds were set here for any values at or beyond the usual limits of such assays
- condition_info: source organism: Escherichia coli 536
measurement_label: Kd

// query Kd value for entry FGGVPREVL
≥ 20 µM

###

- assayed_target: HLA-A*26:03
- experiment_description: IEDB peptide-MHC binding, purified MHC/competitive/fluorescence; filed as Kd, often an IC50 or EC50 that approximates it; bounds were set here for any values at or beyond the usual limits of such assays
- condition_info: source organism: Vaccinia virus WR
measurement_label: Kd

// query Kd value for entry YHRPLTGYM
≥ 20 µM

###

- assayed_target: HLA-B*15:01
- experiment_description: IEDB peptide-MHC binding, purified MHC/competitive/fluorescence; filed as Kd, often an IC50 or EC50 that approximates it; bounds were set here for any values at or beyond the usual limits of such assays
- condition_info: source organism: Salmonella enterica subsp. enterica serovar Typhi
measurement_label: pKd
Please report pKd as the negative decimal logarithm of the molar concentration, giving only the number.

// query pKd value for entry FAHDDRYLY
6.70

###

- assayed_target: HLA-A*02:01
- experiment_description: IEDB peptide-MHC binding, purified MHC/direct/fluorescence; filed as Kd, often an IC50 or EC50 that approximates it; bounds were set here for any values at or beyond the usual limits of such assays
- condition_info: source organism: Mycobacterium avium 104
measurement_label: Kd

// query Kd value for entry IAHVRDVVM
≥ 20 µM

FYI, the data here is from the Immune Epitope Database (IEDB).
